Hey, just so you know, these numbers are from patent US20080312322A1.

Biological target: CRTh2 receptor (Homo sapiens, UniProt Q9Y5Y4)
Sequence (Q9Y5Y4 whole entry): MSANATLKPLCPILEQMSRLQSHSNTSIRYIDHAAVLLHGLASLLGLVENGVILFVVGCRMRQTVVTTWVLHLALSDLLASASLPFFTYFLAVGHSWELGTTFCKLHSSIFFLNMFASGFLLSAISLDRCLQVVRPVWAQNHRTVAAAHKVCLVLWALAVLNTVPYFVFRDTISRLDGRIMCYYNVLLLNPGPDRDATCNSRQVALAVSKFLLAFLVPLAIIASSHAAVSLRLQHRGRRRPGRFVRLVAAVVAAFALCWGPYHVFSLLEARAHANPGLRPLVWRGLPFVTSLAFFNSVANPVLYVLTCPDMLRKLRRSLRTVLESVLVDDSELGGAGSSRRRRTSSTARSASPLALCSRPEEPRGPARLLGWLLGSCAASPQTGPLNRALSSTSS
Assay: Scintillation Proximity Assay (SPA) binding assay, 3H PGD2
Conditions: membranes from K562 or CHO cells stably transfected with human CRTh2; 3H prostaglandin D2
Observable: Ki (nM)
Just the number in nM, nothing appended.

**Query** Retrieve Ki on CRTh2 receptor (Homo sapiens, UniProt Q9Y5Y4); query CC(C)(Oc1ccc(Cl)cc1Cc1cc(Cl)ccc1OCC(=O)O)C(=O)O
**Result** 58
